// IC50 lookup, one value per entry
- studySystem: Gamma-aminobutyric acid receptor subunit alpha-6 (Rattus norvegicus)
- protocolSummary: Displacement of [3H]Muscimol from GABAAalpha6 receptor in Sprague-Dawley rat brain cerebellum membrane

{"columns": ["compoundStructureString", "unitName", "IC50"],
 "data": [
  ["Oc1nnc(C2CCNCC2)o1", "µM", 123],
  ["Cc1nnc(C2CCNCC2)o1", "µM", 76],
  ["NCc1nnc(O)o1", "µM", 1.1],
  ["NCCc1nnc(O)o1", "µM", 7.4],
  ["Cl.Sc1nnc(C2CCNCC2)o1", "µM", 66],
  ["NCc1nnc(S)o1", "µM", 49]
]}

---

- studySystem: Gamma-aminobutyric acid receptor subunit alpha-3 (Rattus norvegicus) (UniProt P20236)
- Sequence (P20236 whole entry): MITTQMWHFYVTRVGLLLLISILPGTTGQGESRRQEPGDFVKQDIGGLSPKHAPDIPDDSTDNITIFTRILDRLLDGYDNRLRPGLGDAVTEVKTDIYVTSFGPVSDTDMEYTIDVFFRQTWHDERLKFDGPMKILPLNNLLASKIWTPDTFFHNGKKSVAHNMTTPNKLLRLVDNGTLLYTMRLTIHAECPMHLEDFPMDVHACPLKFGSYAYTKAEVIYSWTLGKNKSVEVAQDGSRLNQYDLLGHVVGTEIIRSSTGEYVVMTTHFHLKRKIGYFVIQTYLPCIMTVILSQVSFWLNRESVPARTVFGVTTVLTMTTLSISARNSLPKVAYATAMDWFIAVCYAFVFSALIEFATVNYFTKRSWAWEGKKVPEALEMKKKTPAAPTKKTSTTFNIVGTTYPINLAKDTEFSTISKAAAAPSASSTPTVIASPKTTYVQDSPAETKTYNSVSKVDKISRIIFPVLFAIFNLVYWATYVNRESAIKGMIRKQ
- protocolSummary: Intrinsic activity at recombinant rat GABAA alpha-3-beta-3-gamma-2 receptor expressed in HEK293 cells assessed as induction of current at 1 mM by whole-cell patch-clamp technique relative to GABA
- Assay type: cell-based
measuredParameter: Activity (%)

{"columns": ["compoundStructureString", "measuredParameter", "censoringOperator", "experimentalValue"],
 "data": [
  ["Cc1nnc(C2CCNCC2)o1", "Activity", "<", 10],
  ["Oc1nnc(C2CCNCC2)o1", "Activity", "=", 18],
  ["Cl.Sc1nnc(C2CCNCC2)o1", "Activity", "=", 13]
]}

---

- Organism: Rattus norvegicus
- protocolSummary: Displacement of [3H]Muscimol from GABAA alpha-1-alpha-5 receptor in Sprague-Dawley rat brain cortex membrane at 100 uM
Lab note: anything with inhibition at or over 20% counts as true; the rest go in false.

{"columns": ["compound", "cat"],
 "data": [
  ["NCCc1nnc(O)o1", "true"],
  ["Cc1nnc(O)o1", "false"],
  ["CN1CCC(c2nnc(O)o2)CC1", "false"],
  ["Cc1nnc(C2CCNCC2)o1", "true"],
  ["Cl.Sc1nnc(C2CCNCC2)o1", "true"],
  ["Oc1nnc(C2CCCCC2)o1", "false"],
  ["CN(C)Cc1nnc(S)o1", "true"],
  ["Oc1nnc(C2CCNCC2)o1", "true"],
  ["Sc1nnc([C@@H]2CCCN2)o1", "true"],
  ["Sc1nnc(C2CCCNC2)o1 (configuration not stated)", "false"],
  ["C[C@@H](N)c1nnc(O)o1", "true"],
  ["CNCc1nnc(O)o1", "false"],
  ["NCc1nnc(O)o1", "true"],
  ["Sc1nnc(C2CCN(Cc3ccccc3)CC2)o1", "false"],
  ["NCc1nnc(S)o1", "true"],
  ["Sc1nnc(C2CCNCC2)n1Cc1ccccc1", "false"],
  ["CN(C)Cc1nnc(O)o1", "false"]
]}

---

- studySystem: Gamma-aminobutyric acid receptor subunit alpha-4 (Rattus norvegicus, UniProt P18508+P28471+P63079)
- Sequence (P28471 whole entry, one chain of several): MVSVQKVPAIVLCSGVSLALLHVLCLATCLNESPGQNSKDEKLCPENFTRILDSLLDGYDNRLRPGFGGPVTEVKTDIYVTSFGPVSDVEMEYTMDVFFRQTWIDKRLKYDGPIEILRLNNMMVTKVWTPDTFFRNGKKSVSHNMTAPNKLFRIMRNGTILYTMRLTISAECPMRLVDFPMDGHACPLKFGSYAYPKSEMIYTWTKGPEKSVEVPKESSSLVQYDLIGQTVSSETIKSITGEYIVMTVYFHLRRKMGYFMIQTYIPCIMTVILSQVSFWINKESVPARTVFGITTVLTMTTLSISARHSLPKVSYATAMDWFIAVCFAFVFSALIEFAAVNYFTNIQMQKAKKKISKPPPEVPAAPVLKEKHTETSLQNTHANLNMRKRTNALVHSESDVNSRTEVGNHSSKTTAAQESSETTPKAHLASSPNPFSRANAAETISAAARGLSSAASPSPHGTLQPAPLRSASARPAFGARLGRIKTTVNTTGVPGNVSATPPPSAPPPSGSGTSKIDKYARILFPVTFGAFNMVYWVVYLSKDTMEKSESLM
- protocolSummary: Agonist activity at rat recombinant GABAA alpha-4-beta-3-gamma-2 receptor expressed in HEK293 cells assessed as normalization of GABA-induced current by whole cell patch-clamp technique

{"columns": ["compoundStructureString", "EC50 [µM]"],
 "data": [
  ["NCc1nnc(O)o1", 128]
]}

---

- studySystem: Gamma-aminobutyric acid receptor subunit alpha-6 (Rattus norvegicus, UniProt P18508+P30191+P63079)
- protocolSummary: Agonist activity at rat recombinant GABAA alpha-6-beta-3-gamma-2 receptor expressed in HEK293 cells assessed as normalization of GABA-induced current by whole cell patch-clamp technique

{"columns": ["compoundStructureString", "EC50"],
 "data": [
  ["NCc1nnc(O)o1", "30 µM"]
]}

---

- studySystem: Gamma-aminobutyric acid receptor subunit alpha-6 (Rattus norvegicus)
- protocolSummary: Displacement of [3H]Muscimol from GABAAalpha6 receptor in Sprague-Dawley rat brain cerebellum membrane
- Type: tissue-based
Use 1 (yes) when the recorded logIC50 is no lower than 2; use 0 (no) when it is lower.

{"columns": ["compoundStructureString", "studySystem", "cat"],
 "data": [
  ["Cc1nnc(C2CCNCC2)o1", "Gamma-aminobutyric acid receptor subunit alpha-6 (Rattus norvegicus)", "0 (no)"],
  ["NCCc1nnc(O)o1", "Gamma-aminobutyric acid receptor subunit alpha-6 (Rattus norvegicus)", "0 (no)"],
  ["NCc1nnc(S)o1", "Gamma-aminobutyric acid receptor subunit alpha-6 (Rattus norvegicus)", "0 (no)"],
  ["Cl.Sc1nnc(C2CCNCC2)o1", "Gamma-aminobutyric acid receptor subunit alpha-6 (Rattus norvegicus)", "0 (no)"],
  ["Oc1nnc(C2CCNCC2)o1", "Gamma-aminobutyric acid receptor subunit alpha-6 (Rattus norvegicus)", "1 (yes)"],
  ["NCc1nnc(O)o1", "Gamma-aminobutyric acid receptor subunit alpha-6 (Rattus norvegicus)", "0 (no)"]
]}

---

Collected inhibition values appear next to each entry.
- Species on record: Rattus norvegicus
- protocolSummary: Displacement of [3H]Muscimol from GABAA alpha-1-alpha-5 receptor in Sprague-Dawley rat brain cortex membrane at 1 mM
measuredParameter: inhibition

{"columns": ["compound", "experimentalValue"],
 "data": [
  ["NCc1nnc(O)o1", "104%"],
  ["NCCc1nnc(O)o1", "100%"],
  ["Sc1nnc(C2CCCNC2)o1 (stereo not drawn)", "51%"],
  ["Sc1nnc([C@@H]2CCCN2)o1", "36%"],
  ["NCc1nnc(O)n1Cc1ccccc1", "11%"],
  ["Cc1nnc(C2CCNCC2)o1", "87%"],
  ["CNCc1nnc(O)o1", "58%"],
  ["Sc1nnc(C2CCN(Cc3ccccc3)CC2)o1", "33%"],
  ["CN1CCC(c2nnc(O)o2)CC1", "27%"],
  ["CN(C)Cc1nnc(O)o1", "27%"],
  ["Oc1nnc(C2CCN(Cc3ccccc3)CC2)o1", "50%"],
  ["Cl.Sc1nnc(C2CCNCC2)o1", "94%"],
  ["NCc1nnc(S)o1", "99%"],
  ["c1ccc(CN2CCC(c3nnco3)CC2)cc1", "1%"],
  ["S=c1[nH]nc(C2CCCCC2)o1", "18%"],
  ["Oc1nnc(C2CCNCC2)n1Cc1ccccc1", "56%"],
  ["Oc1nnc([C@@H]2CCCN2)o1", "10%"],
  ["Oc1nnc(C2CCCNC2)o1 (stereo not drawn)", "24%"]
]}

---

- studySystem: GABA A receptor alpha-5/beta-3/gamma-2 (Rattus norvegicus, UniProt P18508+P19969+P63079)
- Sequence (P18508 whole entry): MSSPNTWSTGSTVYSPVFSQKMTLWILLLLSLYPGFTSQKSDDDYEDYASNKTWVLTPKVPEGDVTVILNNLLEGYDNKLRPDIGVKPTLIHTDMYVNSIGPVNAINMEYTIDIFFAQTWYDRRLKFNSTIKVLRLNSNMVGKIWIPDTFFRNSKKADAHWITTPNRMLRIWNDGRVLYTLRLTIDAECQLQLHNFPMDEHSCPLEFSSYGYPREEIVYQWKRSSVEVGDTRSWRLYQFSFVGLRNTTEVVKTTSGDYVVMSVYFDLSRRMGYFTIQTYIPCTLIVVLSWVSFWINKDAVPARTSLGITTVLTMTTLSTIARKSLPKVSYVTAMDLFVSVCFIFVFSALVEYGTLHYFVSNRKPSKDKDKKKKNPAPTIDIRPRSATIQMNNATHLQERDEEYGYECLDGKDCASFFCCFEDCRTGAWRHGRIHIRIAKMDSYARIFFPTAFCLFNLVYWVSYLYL
- Sequence (P19969 whole entry): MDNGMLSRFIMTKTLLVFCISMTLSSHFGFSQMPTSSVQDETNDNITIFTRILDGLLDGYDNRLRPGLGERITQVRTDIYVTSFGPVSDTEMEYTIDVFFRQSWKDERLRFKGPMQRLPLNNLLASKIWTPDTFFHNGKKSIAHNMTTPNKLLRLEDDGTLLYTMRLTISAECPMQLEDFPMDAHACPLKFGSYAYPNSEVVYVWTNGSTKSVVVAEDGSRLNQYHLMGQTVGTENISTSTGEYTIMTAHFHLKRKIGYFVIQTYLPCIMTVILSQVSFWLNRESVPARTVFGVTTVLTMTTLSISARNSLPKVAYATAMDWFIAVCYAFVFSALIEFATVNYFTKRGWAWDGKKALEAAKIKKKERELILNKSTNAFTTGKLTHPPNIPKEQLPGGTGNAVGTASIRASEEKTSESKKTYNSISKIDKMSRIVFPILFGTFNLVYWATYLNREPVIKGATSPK
- Sequence (P63079 whole entry): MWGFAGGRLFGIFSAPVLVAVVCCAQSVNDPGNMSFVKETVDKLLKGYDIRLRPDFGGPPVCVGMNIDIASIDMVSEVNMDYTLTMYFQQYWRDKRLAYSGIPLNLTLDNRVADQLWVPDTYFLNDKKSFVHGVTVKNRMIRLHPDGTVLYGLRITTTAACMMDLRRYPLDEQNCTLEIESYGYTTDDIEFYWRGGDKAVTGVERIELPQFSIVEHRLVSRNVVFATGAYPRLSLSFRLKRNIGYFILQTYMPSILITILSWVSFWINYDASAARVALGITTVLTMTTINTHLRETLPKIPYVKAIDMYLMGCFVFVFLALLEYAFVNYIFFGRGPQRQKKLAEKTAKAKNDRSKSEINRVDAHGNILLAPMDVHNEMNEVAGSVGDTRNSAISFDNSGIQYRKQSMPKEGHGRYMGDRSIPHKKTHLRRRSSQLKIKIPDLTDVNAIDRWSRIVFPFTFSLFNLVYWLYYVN
- protocolSummary: Agonist activity at rat recombinant GABAA alpha-5-beta-3-gamma-2 receptor expressed in HEK293 cells assessed as normalization of GABA-induced current by whole cell patch-clamp technique
measuredParameter: EC50 (µM)

{"columns": ["compoundStructureString", "studySystem", "measuredParameter", "experimentalValue"],
 "data": [
  ["NCc1nnc(O)o1", "GABA A receptor alpha-5/beta-3/gamma-2 (Rattus norvegicus, UniProt P18508+P19969+P63079)", "EC50", 137]
]}

---

- studySystem: Gamma-aminobutyric acid receptor subunit alpha-6 (Rattus norvegicus)
- protocolSummary: Displacement of [3H]Muscimol from GABAAalpha6 receptor in Sprague-Dawley rat brain cerebellum membrane at 1 mM
- Assay type: tissue-based
inhibition: recorded values

{"columns": ["compound", "inhibition / %"],
 "data": [
  ["Sc1nnc(C2CCCNC2)o1 (stereo not drawn)", 42],
  ["NCCc1nnc(O)o1", 98],
  ["Oc1nnc(C2CCNCC2)n1Cc1ccccc1", 52],
  ["CN(C)Cc1nnc(S)o1", 37],
  ["Oc1nnc(C2CCN(Cc3ccccc3)CC2)o1", 30],
  ["Oc1nnc([C@@H]2CCCN2)o1", 13],
  ["CN1CCC(c2nnc(S)o2)CC1", 27],
  ["Oc1nnc(C2CCNCC2)o1", 77],
  ["Sc1nnc([C@@H]2CCCN2)o1", 31],
  ["Cc1nnc(C2CCNCC2)o1", 91],
  ["CN1CCC(c2nnc(O)o2)CC1", 26],
  ["Sc1nnc(C2CCN(Cc3ccccc3)CC2)o1", 30],
  ["Cc1nnc(S)o1", -3],
  ["Cc1nnc(O)o1", 4],
  ["C[C@@H](N)c1nnc(O)o1", 34],
  ["NCc1nnc(O)n1Cc1ccccc1", 2],
  ["NCCc1nnc(S)o1", 67],
  ["CNCc1nnc(S)o1", 16]
]}

---

- studySystem: Gamma-aminobutyric acid receptor subunit alpha-6 (Rattus norvegicus) (UniProt P30191)
- Sequence (P30191 whole entry): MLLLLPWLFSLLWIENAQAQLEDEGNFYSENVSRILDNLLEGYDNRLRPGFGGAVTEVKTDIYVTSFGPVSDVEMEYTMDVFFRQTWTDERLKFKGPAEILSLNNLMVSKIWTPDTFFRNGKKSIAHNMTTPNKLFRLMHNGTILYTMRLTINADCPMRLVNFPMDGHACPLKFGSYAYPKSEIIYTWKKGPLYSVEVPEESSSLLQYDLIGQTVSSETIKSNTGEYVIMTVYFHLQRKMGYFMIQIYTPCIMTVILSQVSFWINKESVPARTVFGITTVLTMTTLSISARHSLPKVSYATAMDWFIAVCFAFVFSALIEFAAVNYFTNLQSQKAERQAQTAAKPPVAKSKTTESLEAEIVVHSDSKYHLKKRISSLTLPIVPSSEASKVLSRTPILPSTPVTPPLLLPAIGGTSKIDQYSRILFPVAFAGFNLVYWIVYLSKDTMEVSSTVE
- protocolSummary: Displacement of [3H]Muscimol from GABAAalpha6 receptor in Sprague-Dawley rat brain cerebellum membrane at 1 mM
- Format: tissue-based
inhibition overview
measuredParameter: inhibition (%)

{"columns": ["compound", "experimentalValue"],
 "data": [
  ["Oc1nnc(C2CCCNC2)o1 (centres undefined)", 10],
  ["Cl.Sc1nnc(C2CCNCC2)o1", 91],
  ["S=c1[nH]nc(C2CCCCC2)o1", -3],
  ["c1ccc(CN2CCC(c3nnco3)CC2)cc1", -5],
  ["NCc1nnc(S)o1", 95],
  ["Oc1nnc(C2CCCCC2)o1", 1],
  ["CN(C)Cc1nnc(O)o1", 26],
  ["CNCc1nnc(O)o1", 64],
  ["NCc1nnc(O)o1", 102]
]}
